- Tested on: 565232-114-T-J1-PDC complex spheroid viability
- method-notes: Anticancer human tumor 565232-114-T-J1-PDC patient-derived bladder carcinoma cell line growth inhibition [CLK]
- condition-parameters: second compound 10 µM; first compound 10 µM; hits give low values
Reported viability, T/C values follow for various compounds
value-kind: viability, T/C (%)

{"columns": ["compound", "value-kind", "unit-info", "reading"],
 "data": [
  ["CC1(C)CCC(CN2CCN(c3ccc(C(=O)NS(=O)(=O)c4ccc(NCC5CCOCC5)c([N+](=O)[O-])c4)c(Oc4cnc5[nH]ccc5c4)c3)CC2)=C(c2ccc(Cl)cc2)C1 + CNC(=O)c1ccc(Nc2nc(OC3CCCC3)c3c(-c4ccc5nc(C)oc5c4)c[nH]c3n2)c(OC)c1", "viability, T/C", "%", 16.5],
  ["Nc1ccn(C2OC(CO)C(O)C2(F)F)c(=O)n1 (stereo not given) + CNC(=O)c1ccc(Nc2nc(OC3CCCC3)c3c(-c4ccc5nc(C)oc5c4)c[nH]c3n2)c(OC)c1", "viability, T/C", "%", 5.15],
  ["CCCS(=O)(=O)Nc1ccc(F)c(C(=O)c2c[nH]c3ncc(-c4ccc(Cl)cc4)cc23)c1F + CNC(=O)c1ccc(Nc2nc(OC3CCCC3)c3c(-c4ccc5nc(C)oc5c4)c[nH]c3n2)c(OC)c1", "viability, T/C", "%", 3.9],
  ["CC(Nc1ccc2c(c1)OCCn1cc(N3C(=O)OCC3C(F)F)nc1-2)C(N)=O (stereo not given) + CNC(=O)c1ccc(Nc2nc(OC3CCCC3)c3c(-c4ccc5nc(C)oc5c4)c[nH]c3n2)c(OC)c1", "viability, T/C", "%", 5.93],
  ["CC(=O)O[C@H]1C(=O)[C@@]2(C)[C@H]([C@H](OC(=O)c3ccccc3)[C@]3(O)C[C@H](OC(=O)[C@H](O)[C@@H](NC(=O)c4ccccc4)c4ccccc4)C(C)=C1C3(C)C)[C@]1(OC(C)=O)CO[C@@H]1C[C@@H]2O + CN1CCN(c2cc(C(=O)Nc3cc4cc(-c5cnn(C)c5)ccc4cn3)ccn2)CC1", "viability, T/C", "%", 0.16]
]}

====

- Test system: 565232-114-T-J1-PDC complex spheroid viability
- method-notes: Anticancer human tumor 565232-114-T-J1-PDC cell line growth inhibition [CLK];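 note: spheroids exposed to compounds for 7 days before readout; 100% = DMSO vehicle wells with luminescence normalized to vehicle control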
- condition-parameters: second compound 3.16 µM; first compound 0.1 µM; hits give low values

{"columns": ["molecule", "viability, T/C"],
 "data": [
  ["COc1ccc([C@@H](O)c2cc(-c3ncnc4cc(N5CCOCC5)ccc34)c(F)cc2Cl)nn1 + CNC(=O)c1ccc(Nc2nc(OC3CCCC3)c3c(-c4ccc5nc(C)oc5c4)c[nH]c3n2)c(OC)c1", "19.6%"],
  ["O=C(c1cc(Cc2n[nH]c(=O)c3ccccc23)ccc1F)N1CCN(C(=O)C2CC2)CC1 + CN1CCN(c2cc(C(=O)Nc3cc4cc(-c5cnn(C)c5)ccc4cn3)ccn2)CC1", "0.29%"],
  ["CC1(C)CCC(CN2CCN(c3ccc(C(=O)NS(=O)(=O)c4ccc(NCC5CCOCC5)c([N+](=O)[O-])c4)c(Oc4cnc5[nH]ccc5c4)c3)CC2)=C(c2ccc(Cl)cc2)C1 + CNC(=O)c1ccc(Nc2nc(OC3CCCC3)c3c(-c4ccc5nc(C)oc5c4)c[nH]c3n2)c(OC)c1", "20.8%"],
  ["CCc1c2c(nc3ccc(O)cc13)-c1cc3c(c(=O)n1C2)COC(=O)[C@]3(O)CC + CN1CCN(c2cc(C(=O)Nc3cc4cc(-c5cnn(C)c5)ccc4cn3)ccn2)CC1", "0.12%"],
  ["Cn1ncnc1[C@H]1c2n[nH]c(=O)c3cc(F)cc(c23)N[C@@H]1c1ccc(F)cc1 + CN1CCN(c2cc(C(=O)Nc3cc4cc(-c5cnn(C)c5)ccc4cn3)ccn2)CC1", "2.75%"]
]}
